Provenance of the data: patent US20220119492A1

The entries below come with measured IC50 values attached.
# measured_target: T1, cynomolgus monkey IL-2Rβ subunit (cynomolgus monkey)
# T1 construct: Bought protein; also called cyno-IL-2Rβ subunit
# T1 sequence (Q38J85 whole entry): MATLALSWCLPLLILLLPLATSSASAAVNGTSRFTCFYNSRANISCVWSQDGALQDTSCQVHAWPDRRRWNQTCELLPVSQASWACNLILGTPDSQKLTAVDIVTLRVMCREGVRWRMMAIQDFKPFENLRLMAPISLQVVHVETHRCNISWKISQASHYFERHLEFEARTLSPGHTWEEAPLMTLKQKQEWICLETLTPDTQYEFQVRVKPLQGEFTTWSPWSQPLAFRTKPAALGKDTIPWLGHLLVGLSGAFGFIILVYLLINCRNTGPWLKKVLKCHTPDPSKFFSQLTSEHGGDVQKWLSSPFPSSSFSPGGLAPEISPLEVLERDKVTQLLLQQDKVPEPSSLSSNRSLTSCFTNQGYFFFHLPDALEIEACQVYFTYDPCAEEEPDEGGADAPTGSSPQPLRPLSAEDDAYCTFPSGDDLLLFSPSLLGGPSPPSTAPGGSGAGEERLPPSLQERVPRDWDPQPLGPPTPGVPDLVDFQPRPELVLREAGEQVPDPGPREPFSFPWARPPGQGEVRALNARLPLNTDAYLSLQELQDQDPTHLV
# procedure_text: competition ELISA, peptide tracer
measured_metric: IC50

>>> print(df.to_string())
                                     binder  measured_metric  observed
0  SEQ ID NO 4178 (peptide) peptide: GGELLVDCFKVKVGELCDLFFGPAPAPAPAPAPAPAPAGVVCQDWEGVELCWQGG             IC50  < 100 µM
1  GGRYVHDCFIAQVADLCDLFLHGG [SEQ ID NO 3174]             IC50  < 100 µM
2  SEQ ID NO 4176 (peptide) peptide: GGRYVHDCFIAQVGDLCDLFLHPAPAPAPAPAPAPAPAGVVCQDWEGVELCWQGG             IC50  < 100 µM
